tested on: MDA-MB-231 breast; test: NCI-60 one-dose screen, 48 h; conditions: 10 µM unless noted
The panel holds about 83,000 compounds, 20% with a hit somewhere; the sample as a whole holds those more often. Activity calls are given as the source filed them. Rule for the calls: active = growth percent below 10; inactive = the rest.
Answer with one of the outcomes active, inactive

These recorded examples may help you get a feel for the data.
{"compound": "CN(C)c1ccc(N=Nc2ccc(Br)cn2)c(O)c1", "target_entity": "MDA-MB-231 breast", "assigned_label": "inactive"}
{"compound": "CC(=O)O[C@H]1[C@@H]2OC(=O)C(CSc3ccccc3)[C@@H]2C[C@H]2O[C@]2(C)CC/C=C(\\C)CCC[C@@H]1C (stereo not given in full)", "target_entity": "MDA-MB-231 breast", "assigned_label": "inactive"}
{"compound": "C=C1c2nc3ccccc3n2C=C(c2cccc(Cl)c2)N1Cc1ccc(OC)cc1", "target_entity": "MDA-MB-231 breast", "assigned_label": "inactive"}
{"compound": "COc1cc(/C=C/C(=O)c2cccnc2Nc2ccc(F)cc2)cc(OC)c1OC", "target_entity": "MDA-MB-231 breast", "assigned_label": "inactive"}
{"compound": "O=C1NC(=S)N[C@H]1CC(=O)n1cnc2ccccc21", "target_entity": "MDA-MB-231 breast", "assigned_label": "inactive"}
{"compound": "CCCc1cc(=O)n2c(C(=O)Nc3cccc(C(=O)OCC)c3)c(C(=O)Nc3ccc(F)cc3)sc2n1", "target_entity": "MDA-MB-231 breast", "assigned_label": "inactive"}

# evaluate next
Recorded test outcome, item CN(C)c1ccc(N=Nc2ccccn2)c(O)c1
inactive

The reported measurements were obtained from PubChem BioAssay (NCI).
